test: Cytotoxicity in MT-4 cells, tetrazolium viability; format: cell-based; settings: human, printed in HIV-1 line, read-out: av CC50
measured property: CC50 at 5 d

query: Fill blank: measured CC50 at 5 d of the compound c1cc(CN2CCCN3CCN(CCCNCC2)CC3)ccc1CN1CCCN2CCN(CCCNCC1)CC2 [Compound 16] is ____.
result: > 225 µM

* * *

test system: MT-4 cells; assay: Cytotoxicity in MT-4 cells, tetrazolium viability; assay type: cell-based; conditions: 5 d, printed in HIV-2 line, read-out: av CC50
measured property: CC50

query: Fill blank: measured CC50 of the molecule c1cc(CN2CCCN3CCN(CCCNCC2)CC3)ccc1CN1CCCN2CCN(CCCNCC1)CC2 [Compound 16] is ____.
result: > 225 µM
